Target: T1, human TGR12 (untagged) (human, UniProt Q96LB1 1-330)
T1 sequence: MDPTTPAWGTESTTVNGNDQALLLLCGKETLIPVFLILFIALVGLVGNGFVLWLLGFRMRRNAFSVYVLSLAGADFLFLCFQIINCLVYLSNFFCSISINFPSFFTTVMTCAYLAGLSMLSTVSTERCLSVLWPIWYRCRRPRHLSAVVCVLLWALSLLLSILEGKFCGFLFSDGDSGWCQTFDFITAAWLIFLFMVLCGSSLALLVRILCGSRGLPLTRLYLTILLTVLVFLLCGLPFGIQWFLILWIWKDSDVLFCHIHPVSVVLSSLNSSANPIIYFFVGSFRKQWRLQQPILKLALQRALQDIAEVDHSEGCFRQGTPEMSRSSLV
Assay: cell-based or functional assay
Where no end group is shown, it is not given here.
ENDPOINT NAME: degranulation of LAD 2 (beta-hexosaminidase release, % of total) at 100 nM (%)

{"BINDER": "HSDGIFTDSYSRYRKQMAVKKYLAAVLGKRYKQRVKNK (peptide, UniProt P18509 132-169, looked up, not fully specified; ends and bridges not checked, domain: PACAP-38) [human PACAP38 (pituitary adenylate cyclase activating polypeptide 38)]", "REPORTED": 49.4}
{"BINDER": "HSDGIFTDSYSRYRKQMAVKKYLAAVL (peptide, UniProt P18509 132-158, looked up, not fully specified; ends and bridges not checked, domain: PACAP-27) [human PACAP27 (pituitary adenylate cyclase activating polypeptide 27)]", "REPORTED": 59.4}
{"BINDER": "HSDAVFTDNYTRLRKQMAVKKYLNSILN (peptide, UniProt P01282 125-152, looked up, not fully specified; ends and bridges not checked, domain: VIP; also called vasoactive intestinal peptide) [human VIP (vasoactive intestinal polypeptide)]", "REPORTED": 36.7}
{"BINDER": "DRMPCRNFFWKTFSSCK (peptide, UniProt O00230 89-105, looked up, not fully specified; ends and bridges not checked) [human cortistatin-17]", "REPORTED": 26.5}

Ref: patent US20100068208A1
